Source of measurements: ChEMBL document CHEMBL6127016

The entries below come with measured Kd values attached.
target: Quadruplex DNA; test: Binding affinity to human telomeric G-quadruplex HT21 DNA assessed as dissociation constant by fluorescence titration spectra analysis
Kindly answer with a numeric value in nM, unit omitted.

# input Value wanted: Kd (Quadruplex DNA) of entry O=C1c2ccc3c4c(c(NCCN5CCN(c6ccc([N+](=O)[O-])c7nonc67)CC5)cc(c24)C(=O)N1CCCN1CCOCC1)C(=O)N(CCCN1CCOCC1)C3=O
# output 1720

Now for another entry.
# input Value wanted: Kd (Quadruplex DNA) of entry O=C(CNc1cc2c3c(ccc4c3c1C(=O)N(CCCN1CCOCC1)C4=O)C(=O)N(CCCN1CCOCC1)C2=O)NCC1CCN(c2ccc([N+](=O)[O-])c3nonc23)CC1
# output 600
